Origin of values: ChEMBL document CHEMBL3879914

Target: UniProtKB P41587
Sequence (whole entry): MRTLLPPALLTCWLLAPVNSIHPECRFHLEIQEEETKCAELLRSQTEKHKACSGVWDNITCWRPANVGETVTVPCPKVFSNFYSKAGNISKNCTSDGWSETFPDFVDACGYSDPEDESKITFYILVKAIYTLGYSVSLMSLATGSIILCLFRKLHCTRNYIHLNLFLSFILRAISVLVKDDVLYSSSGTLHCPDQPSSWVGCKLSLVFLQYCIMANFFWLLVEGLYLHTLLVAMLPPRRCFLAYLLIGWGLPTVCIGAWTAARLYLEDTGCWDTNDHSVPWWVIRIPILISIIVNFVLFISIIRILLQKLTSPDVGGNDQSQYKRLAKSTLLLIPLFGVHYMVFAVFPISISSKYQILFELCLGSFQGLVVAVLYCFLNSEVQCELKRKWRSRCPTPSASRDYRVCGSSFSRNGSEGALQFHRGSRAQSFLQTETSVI
Test: Antagonist activity at recombinant human N-terminal signal peptide/FLAG epitope-tagged Rluc8-fused VIPR2 expressed in HEK293 cells assessed as inhibition of VIP-induced human mVenus-beta-arrestin2 binding at 5 uM preincubated for 5 mins with luciferin, coelenterazine H followed by VIP addition measured after 5 mins by BRET assay relative to control
Assay type: cell-based
test readout: inhibition
The reply should read as a number followed by its unit.

> print(dat)
                                   molecule       measured.on  meas.value
1  O=C(NCc1ccccc1)c1ccc(S(=O)(=O)NC[C@@H](O)C[C@@H](Cc2ccccc2)C(=O)N[C@H]2c3ccccc3C[C@H]2O)cc1  UniProtKB P41587       -7.7%

input: Any idea what inhibition came out for `O=C(O)c1ccc(S(=O)(=O)NC[C@@H](O)C[C@@H](Cc2ccccc2)C(=O)N[C@H]2c3ccccc3C[C@H]2O)cc1` on UniProtKB P41587?
output: 0.2%
